This collection of values is drawn from ChEMBL document CHEMBL1142193.

# Test system: Streptococcus pneumoniae
# Experimental Details: Antibacterial activity against novobiocin-resistant Streptococcus pneumoniae ATCC BAA-255 with GyrB S127L mutation after 18 to 20 hrs
# Assay type: functional
Please go through the items and note down their MIC.
Answer format: numeric, µg/mL implied, no suffix.

Ask | For the compound O=C(O)c1cn(C2CC2)c2cc(N3CCNCC3)c(F)cc2c1=O , what MIC is on record?
Reply | 0.25

Ask | For the compound CCNC(=O)Nc1nc2cc(-c3cccnc3)cc(-c3ncccc3F)c2[nH]1 , what MIC is on record?
Reply | 0.002

Ask | For the compound CCNC(=O)Nc1nc2cc(-c3cnc(OC)nc3)c(OC)cc2[nH]1 , what MIC is on record?
Reply | 0.5

Ask | For the compound CO[C@@H]1[C@@H](OC(N)=O)[C@@H](O)[C@H](Oc2ccc3c(O)c(NC(=O)c4ccc(O)c(CC=C(C)C)c4)c(=O)oc3c2C)OC1(C)C , what MIC is on record?
Reply | 8

---

Please go through the items and note down their MIC.
# Tested on: Staphylococcus aureus
# Experimental Details: Antibacterial activity against Staphylococcus aureus ATCC 29213 after 18 to 20 hrs
# Assay type: functional
Answer format: numeric, µg/mL implied, no suffix.

Ask | GET /values?readout=MIC&system=Staphylococcus aureus&item= CO[C@@H]1[C@@H](OC(N)=O)[C@@H](O)[C@H](Oc2ccc3c(O)c(NC(=O)c4ccc(O)c(CC=C(C)C)c4)c(=O)oc3c2C)OC1(C)C
Reply | 0.13

Ask | GET /values?readout=MIC&system=Staphylococcus aureus&item= CCNC(=O)Nc1nc2cc(-c3cccnc3)cc(-c3ncccc3F)c2[nH]1
Reply | 0.03

Ask | GET /values?readout=MIC&system=Staphylococcus aureus&item= CCNC(=O)Nc1nc2cc(-c3cnc(OC)nc3)c(OC)cc2[nH]1
Reply | 2

Ask | GET /values?readout=MIC&system=Staphylococcus aureus&item= O=C(O)c1cn(C2CC2)c2cc(N3CCNCC3)c(F)cc2c1=O
Reply | 0.25

---

Please go through the items and note down their MIC.
# Test system: Staphylococcus aureus
# Experimental Details: Antibacterial activity against Staphylococcus aureus ATCC 29213 without plasmid
# Assay type: functional
Answer format: numeric, µg/mL implied, no suffix.

Ask | For the molecule O=C(O)c1cn(C2CC2)c2cc(N3CCNCC3)c(F)cc2c1=O , what MIC is on record?
Reply | 0.25

Ask | For the molecule CCNC(=O)Nc1nc2cc(-c3cnc(OC)nc3)c(OC)cc2[nH]1 , what MIC is on record?
Reply | 2

Ask | For the molecule CO[C@@H]1[C@@H](OC(N)=O)[C@@H](O)[C@H](Oc2ccc3c(O)c(NC(=O)c4ccc(O)c(CC=C(C)C)c4)c(=O)oc3c2C)OC1(C)C , what MIC is on record?
Reply | 0.13

Ask | For the molecule CCNC(=O)Nc1nc2cc(-c3cccnc3)cc(-c3ncccc3F)c2[nH]1 , what MIC is on record?
Reply | 0.06

---

# System: Haemophilus influenzae
# Experimental Details: Antibacterial activity against novobiocin-resistant Haemophilus influenzae ATCC 51907 with GyrB R140C mutation after 18 to 20 hrs
# Assay type: functional
Assay Endpoint: MIC (µg/mL)
Answer format: numeric, µg/mL implied, no suffix.

Ask | For the molecule CO[C@@H]1[C@@H](OC(N)=O)[C@@H](O)[C@H](Oc2ccc3c(O)c(NC(=O)c4ccc(O)c(CC=C(C)C)c4)c(=O)oc3c2C)OC1(C)C [NOVOBIOCIN] , what MIC is on record?
Reply | 8

Ask | For the molecule CCNC(=O)Nc1nc2cc(-c3cccnc3)cc(-c3ncccc3F)c2[nH]1 , what MIC is on record?
Reply | 1

Ask | For the molecule O=C(O)c1cn(C2CC2)c2cc(N3CCNCC3)c(F)cc2c1=O [CIPROFLOXACIN] , what MIC is on record?
Reply | 0.004

Ask | For the molecule CCNC(=O)Nc1nc2cc(-c3cnc(OC)nc3)c(OC)cc2[nH]1 , what MIC is on record?
Reply | 2

---

# Tested on: Staphylococcus aureus
# Experimental Details: Antibacterial activity against Staphylococcus aureus ATCC 29213 with GyrB T173N and GrlB T166A mutation after 18 to 20 hrs
# Format: functional
Assay Endpoint: MIC (µg/mL)
Answer format: numeric, µg/mL implied, no suffix.

Ask | For the molecule O=C(O)c1cn(C2CC2)c2cc(N3CCNCC3)c(F)cc2c1=O [CIPROFLOXACIN] , what MIC is on record?
Reply | 0.25

Ask | For the molecule CO[C@@H]1[C@@H](OC(N)=O)[C@@H](O)[C@H](Oc2ccc3c(O)c(NC(=O)c4ccc(O)c(CC=C(C)C)c4)c(=O)oc3c2C)OC1(C)C [NOVOBIOCIN] , what MIC is on record?
Reply | 0.25

---

Please go through the items and note down their MIC.
# System: Staphylococcus aureus
# Experimental Details: Antibacterial activity against Staphylococcus aureus ATCC 29213 with GyrB T173I mutation after 18 to 20 hrs
# Type: functional
Answer format: numeric, µg/mL implied, no suffix.

Ask | For the compound O=C(O)c1cn(C2CC2)c2cc(N3CCNCC3)c(F)cc2c1=O , what MIC is on record?
Reply | 0.25

Ask | For the compound CO[C@@H]1[C@@H](OC(N)=O)[C@@H](O)[C@H](Oc2ccc3c(O)c(NC(=O)c4ccc(O)c(CC=C(C)C)c4)c(=O)oc3c2C)OC1(C)C , what MIC is on record?
Reply | 1

Ask | For the compound CCNC(=O)Nc1nc2cc(-c3cnc(OC)nc3)c(OC)cc2[nH]1 , what MIC is on record?
Reply | 16

Ask | For the compound CCNC(=O)Nc1nc2cc(-c3cccnc3)cc(-c3ncccc3F)c2[nH]1 , what MIC is on record?
Reply | 0.5
